Below is a list of entries, each paired with its recorded MIC value.
- Test system: MRSA strains
- Experiment description: Antibiotic assay (absorption 660 nm, Example 2), MRSA strains
- Format: cell-based, Staphylococcus aureus
- Conditions: MRSA 3
Property label: MIC (µM)

1) COc1cc(O)c(C(=O)CCc2ccc(O)cc2)c2c1CCC(c1ccc(O)cc1)O2 (racemic) :: 4
2) COc1ccc(CCC(=O)c2c(O)cc(O)c3c2OC(c2ccc(O)cc2)C(O)C3)cc1 (stereo not drawn) [XX] :: 8.9
3) O=C(CCc1ccccc1)c1c(O)cc(O)c2c1OC(c1ccc(O)cc1)C(O)C2 (stereo not drawn) [XVII] :: 16.7
4) O=C(CCc1ccccc1)c1c(O)cc2c(c1O)CC(O)C(c1ccc(O)cc1)O2 (stereo not drawn) [XIV] :: 18
5) COc1ccc(CCC(=O)c2c(O)cc(O)c3c2OC(c2ccc(O)cc2)CC3)cc1 (racemic) :: 1.7
6) COc1ccc(CCC(=O)c2c(O)cc(O)c3c2OC(c2ccc(O)cc2)C(O)C3)cc1 (racemic) [XIX] :: 4.3
7) O=C(CCc1ccccc1)c1c(O)cc(O)c2c1O[C@@H](c1ccc(O)cc1)CC2 :: 3.8
8) O=C(CCc1ccccc1)c1c(O)cc(O)c2c1O[C@H](c1ccc(O)cc1)CC2 :: 3.8

---

- Test system: Streptococcus pneumoniae
- Experiment description: Antibiotic assay (resazurin, Example 1), Streptococcus pneumoniae
- Assay type: cell-based
- Conditions: Streptococcus pneumoniae, Strep. pneumoniae 14070; read-out: IC50
- Method: Bacteria Strain. […] The MRSA were obtained as further described below. Antibiotic agents. Cyprofloxacin and erythromycin were provided by Sigma-Aldrich. Gentamicin sulfate and vancomycin hydrochloride were provided by Calbiochem. Five additional strains were tested: Streptococcus pneumoniae, Streptococcus agalactiae, Streptococcus pyogenes, Enterococcus faecalis and Corynebacterium jeikeium.
Property label: IC50

1) O=C(O)c1cn(C2CC2)c2cc(N3CCNCC3)c(F)cc2c1=O [Ciprofloxacin, reference compound] :: > 200 µM

---

- System: Streptococcus agalactiae
- Experiment description: Antibiotic assay (resazurin, Example 1), Streptococcus agalactiae
- Type: cell-based
- Conditions: Streptococcus agalactiae, Strep. agalactiae 14150; read-out: IC50
Property label: IC50

1. O=C(O)c1cn(C2CC2)c2cc(N3CCNCC3)c(F)cc2c1=O [Ciprofloxacin, reference compound] :: 138 µM

---

Below is a list of entries, each paired with its recorded IC50 value.
- Test system: S. aureus
- Experiment description: Antibiotic assay (resazurin, Example 1), S. aureus strains of Table 3
- Assay type: cell-based, Staphylococcus aureus
- Conditions: S. aureus 14094; read-out: IC50
Property label: IC50 (µM)

1) COc1cc(O)c(C(=O)CCc2ccc(O)cc2)c(O)c1C/C=C/c1ccc(O)cc1 :: 3.5
2) O=C(CCc1ccccc1)c1c(O)cc(O)c(C/C=C/c2ccc(O)cc2)c1O :: 2.4
3) COc1ccc(CCC(=O)c2c(O)cc(O)c(C/C=C/c3ccc(O)cc3)c2O)cc1 :: 3.5

---

- Tested on: MRSA strains
- Experiment description: Antibiotic assay (absorption 660 nm, Example 2), MRSA strains
- Assay type: cell-based, Staphylococcus aureus
- Conditions: MRSA 4
Property label: MIC (µM)

1) COc1ccc(CCC(=O)c2c(O)cc(O)c3c2OC(c2ccc(O)cc2)CC3)cc1 (racemic) [VII] :: 2.4
2) O=C(CCc1ccccc1)c1c(O)cc(O)c2c1O[C@H](c1ccc(O)cc1)CC2 [V] :: 4.7
3) COc1ccc(CCC(=O)c2c(O)cc(O)c3c2O[C@@H](c2ccc(O)cc2)CC3)cc1 [IX] :: 6.7
4) O=C(CCc1ccccc1)c1c(O)cc(O)c2c1OC(c1ccc(O)cc1)CC2 (racemic) [IV] :: 2.6
5) O=C(CCc1ccccc1)c1c(O)cc2c(c1O)CC(O)C(c1ccc(O)cc1)O2 (stereo not drawn) [XIV] :: 22
6) COc1ccc(CCC(=O)c2c(O)cc(O)c3c2OC(c2ccc(O)cc2)C(O)C3)cc1 (stereo not drawn) [XXI] :: 12.3
7) COc1cc(O)c(C(=O)CCc2ccc(O)cc2)c2c1CCC(c1ccc(O)cc1)O2 (racemic) [X] :: 3
8) O=C(CCc1ccccc1)c1c(O)cc(O)c2c1OC(c1ccc(O)cc1)C(O)C2 (racemic) [XVI] :: 5.7
9) O=C(CCc1ccccc1)c1c(O)cc(O)c2c1O[C@@H](c1ccc(O)cc1)CC2 [VI] :: 5.2
10) O=C(CCc1ccccc1)c1c(O)cc2c(c1O)CC(O)C(c1ccc(O)cc1)O2 (racemic) [XIII] :: 6.8
11) COc1cc(O)c(C(=O)CCc2ccc(O)cc2)c2c1CC[C@H](c1ccc(O)cc1)O2 [XII] :: 0.64
12) O=C(CCc1ccccc1)c1c(O)cc2c(c1O)CC(O)C(c1ccc(O)cc1)O2 (stereo not drawn) [XV] :: 22
13) COc1ccc(CCC(=O)c2c(O)cc(O)c3c2OC(c2ccc(O)cc2)C(O)C3)cc1 (stereo not drawn) [XX] :: 7.6
14) O=C(CCc1ccccc1)c1c(O)cc(O)c2c1OC(c1ccc(O)cc1)C(O)C2 (stereo not drawn) [XVII] :: 15
15) O=C(CCc1ccccc1)c1c(O)cc(O)c2c1OC(c1ccc(O)cc1)C(O)C2 (stereo not drawn) [XVIII] :: 15
16) COc1ccc(CCC(=O)c2c(O)cc(O)c3c2OC(c2ccc(O)cc2)C(O)C3)cc1 (racemic) [XIX] :: 2.9

---

- System: S. epidermidis
- Experiment description: Antibiotic assay (resazurin, Example 1), S. epidermidis strains
- Conditions: Staphylococcus epidermidis, S. epidermidis 14093
pIC50: −log10 of the molar value. Structures can show the parent of a compound that is named as a salt.
Property label: pIC50

1) CN[C@H](CC(C)C)C(=O)N[C@H]1C(=O)N[C@@H](CC(N)=O)C(=O)N[C@H]2C(=O)N[C@H]3C(=O)N[C@H](C(=O)N[C@H](C(=O)O)c4cc(O)cc(O)c4-c4cc3ccc4O)[C@H](O)c3ccc(c(Cl)c3)Oc3cc2cc(c3O[C@@H]2O[C@H](CO)[C@@H](O)[C@H](O)[C@H]2O[C@H]2C[C@](C)(N)[C@H](O)[C@H](C)O2)Oc2ccc(cc2Cl)[C@H]1O [Vancomycin, vancomycin hydrochloride, reference compound] :: 5.89

---

Below is a list of entries, each paired with its recorded MIC value.
- System: MRSA strains
- Experiment description: Antibiotic assay (absorption 660 nm, Example 2), MRSA strains
- Type: cell-based, Staphylococcus aureus
- Conditions: MRSA 3
Property label: MIC (µM)

1. COc1cc(O)c(C(=O)CCc2ccc(O)cc2)c2c1CC[C@H](c1ccc(O)cc1)O2 :: 1.10
2. COc1ccc(CCC(=O)c2c(O)cc(O)c3c2O[C@@H](c2ccc(O)cc2)CC3)cc1 :: 6.25
3. O=C(CCc1ccccc1)c1c(O)cc(O)c2c1OC(c1ccc(O)cc1)CC2 (racemic) :: 1.02
4. COc1ccc(CCC(=O)c2c(O)cc(O)c3c2OC(c2ccc(O)cc2)C(O)C3)cc1 (stereo not drawn) [XXI] :: 8.5
5. O=C(CCc1ccccc1)c1c(O)cc2c(c1O)CC(O)C(c1ccc(O)cc1)O2 (stereo not drawn) [XV] :: 29
6. O=C(CCc1ccccc1)c1c(O)cc(O)c2c1OC(c1ccc(O)cc1)C(O)C2 (stereo not drawn) [XVIII] :: 15.9
7. O=C(CCc1ccccc1)c1c(O)cc2c(c1O)CC(O)C(c1ccc(O)cc1)O2 (racemic) [XIII] :: 7.8
8. O=C(CCc1ccccc1)c1c(O)cc(O)c2c1OC(c1ccc(O)cc1)C(O)C2 (racemic) [XVI] :: 5.1

---

- Test system: Streptococcus agalactiae
- Experiment description: Antibiotic assay (resazurin, Example 1), Streptococcus agalactiae
- Format: cell-based
- Conditions: Strep. agalactiae 14150; read-out: IC50
pIC50: −log10 of the molar value.
Property label: pIC50

1) COc1cc(O)c(C(=O)CCc2ccc(O)cc2)c(O)c1C/C=C/c1ccc(O)cc1 [Compound I] :: 3.84
2) O=C(CCc1ccccc1)c1c(O)cc(O)c(C/C=C/c2ccc(O)cc2)c1O [Compound III] :: 3.81
3) COc1ccc(CCC(=O)c2c(O)cc(O)c(C/C=C/c3ccc(O)cc3)c2O)cc1 [Compound II] :: 3.77

---

- Test system: MRSA strains
- Experiment description: Antibiotic assay (absorption 660 nm, Example 2), MRSA strains
- Assay type: cell-based, Staphylococcus aureus
- Conditions: MRSA 10
// map MIC onto a label; ranges bucket A = under 3 µM, bucket B = from 3 µM up to 10 µM, bucket C = 10 µM and over

1) COc1ccc(CCC(=O)c2c(O)cc(O)c3c2O[C@H](c2ccc(O)cc2)CC3)cc1 :: bucket C
2) O=C(CCc1ccccc1)c1c(O)cc(O)c2c1OC(c1ccc(O)cc1)C(O)C2 (stereo not shown) [XVII] :: bucket C
3) COc1ccc(CCC(=O)c2c(O)cc(O)c3c2OC(c2ccc(O)cc2)C(O)C3)cc1 (stereo not shown) [XXI] :: bucket C
4) COc1ccc(CCC(=O)c2c(O)cc(O)c3c2OC(c2ccc(O)cc2)C(O)C3)cc1 (racemic) [XIX] :: bucket A
5) O=C(CCc1ccccc1)c1c(O)cc(O)c2c1O[C@H](c1ccc(O)cc1)CC2 :: bucket B
6) O=C(CCc1ccccc1)c1c(O)cc2c(c1O)CC(O)C(c1ccc(O)cc1)O2 (stereo not shown) [XIV] :: bucket C
7) COc1ccc(CCC(=O)c2c(O)cc(O)c3c2OC(c2ccc(O)cc2)CC3)cc1 (racemic) :: bucket A
8) COc1cc(O)c(C(=O)CCc2ccc(O)cc2)c2c1CCC(c1ccc(O)cc1)O2 (racemic) :: bucket B
9) COc1ccc(CCC(=O)c2c(O)cc(O)c3c2OC(c2ccc(O)cc2)C(O)C3)cc1 (stereo not shown) [XX] :: bucket C
10) COc1cc(O)c(C(=O)CCc2ccc(O)cc2)c2c1CC[C@H](c1ccc(O)cc1)O2 :: bucket A
11) O=C(CCc1ccccc1)c1c(O)cc(O)c2c1OC(c1ccc(O)cc1)C(O)C2 (racemic) [XVI] :: bucket B
12) COc1ccc(CCC(=O)c2c(O)cc(O)c3c2O[C@@H](c2ccc(O)cc2)CC3)cc1 :: bucket B
13) COc1cc(O)c(C(=O)CCc2ccc(O)cc2)c2c1CC[C@@H](c1ccc(O)cc1)O2 :: bucket A
